# test system: 5HT2C receptors (Homo sapiens, UniProt P28335)
# Sequence (P28335 33-458): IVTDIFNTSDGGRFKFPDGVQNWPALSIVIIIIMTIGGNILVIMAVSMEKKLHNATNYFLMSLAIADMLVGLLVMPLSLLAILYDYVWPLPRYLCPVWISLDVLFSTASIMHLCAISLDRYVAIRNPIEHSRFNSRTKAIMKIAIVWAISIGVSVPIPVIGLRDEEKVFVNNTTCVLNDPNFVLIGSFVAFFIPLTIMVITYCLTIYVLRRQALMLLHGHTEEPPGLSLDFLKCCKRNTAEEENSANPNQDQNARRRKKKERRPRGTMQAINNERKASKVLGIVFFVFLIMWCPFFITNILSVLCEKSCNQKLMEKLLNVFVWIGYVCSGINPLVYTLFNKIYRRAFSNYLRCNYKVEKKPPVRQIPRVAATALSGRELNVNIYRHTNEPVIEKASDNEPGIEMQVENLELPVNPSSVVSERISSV
# assay text: Human 5-HT2C functional high throughput screening assay in CHO-K1 cells (calcium flux)
# Format: cell-based
# Parameters: expressed in transfected cells; host or cells: CHO-K1 cells
# experimental conditions: 5-HT2C agonist activity; CHO-K1 cells; calcium flux; read-out: EC50
# Experimental: (iii) Human 5-HT2C and 5-HT2B Functional High Throughput Screening Assays in CHO-K1 Cells […] After incubation, the cell plates were transferred to FLIPR™ (MDS) and their fluorescence measurements were read at an excitation wavelength of 480 nm and an emission wavelength of 530 nm at 25° C. The baseline fluorescence was measured for the first 10 seconds and then 15 μL of 4× concentration of serotonin/test compound was added to the cells. […]
Field: EC50. Provide a value for each of the compounds that follow.
Express it in µM; write the number only.

Record CN1C[C@H]2CNC(=O)c3cc(OCC4CCCCC4)ccc3[C@@H]2C1 (relative stereo) [Example 176] . Reported EC50: 0.2

Record COc1ccc(-c2ccc3c(c2)C(=O)NC[C@@H]2CN(C)C[C@@H]32)cc1C (relative stereo) [Example 315] . Reported EC50: 0.03

Record CN1C[C@H]2CNC(=O)c3cc(-c4ccc(F)cc4F)ccc3[C@@H]2C1 (relative stereo) [Example 331] . Reported EC50: 0.2

Record Cc1cc(-c2ccc3c(c2)C(=O)NC[C@@H]2CN(C)C[C@@H]32)ccc1F (relative stereo) [Example 314] . Reported EC50: 0.003

Record O=S(=O)(c1ccccc1OC(F)(F)F)N1Cc2cccnc2[C@@H]2CNC[C@H]2C1 (relative stereo) [Example 364] . Reported EC50: 0.1

Record CN1C[C@H]2CNC(=O)c3cc(-c4cccc(CCO)c4)ccc3[C@@H]2C1 (relative stereo) [Example 253] . Reported EC50: 0.007

Record O=C1NC[C@@H]2CN(Cc3ccccc3)C[C@H]2c2ccc(-c3nnco3)cc21 (relative stereo) [Example 136] . Reported EC50: 2

* * *

# test system: 5HT2B receptors (Homo sapiens)
# Construct: expressed in transfected cells; host or cells: CHO-K1 cells
# assay text: Human 5-HT2B functional high throughput screening assay in CHO-K1 cells (calcium flux)
# Format: cell-based
# experimental conditions: 5-HT2B; maximum functional response as percentage relative to the effect of serotonin
# Protocol: (iii) Human 5-HT2C and 5-HT2B Functional High Throughput Screening Assays in CHO-K1 Cells […] After incubation, the cell plates were transferred to FLIPR™ (MDS) and their fluorescence measurements were read at an excitation wavelength of 480 nm and an emission wavelength of 530 nm at 25° C. The baseline fluorescence was measured for the first 10 seconds and then 15 μL of 4× concentration of serotonin/test compound was added to the cells. […]
measure name: Emax

CN1C[C@H]2CNC(=O)c3cc(Oc4ccc(F)cc4)ccc3[C@@H]2C1 (relative stereo) [Example 243]    inactive
O=C1NC[C@@H]2CN(Cc3ccccc3)C[C@H]2c2ccc(-c3nnco3)cc21 (relative stereo) [Example 136]    inactive
C[C@@H](Cc1ccccc1)Oc1ccc2c(c1)C(=O)NC[C@@H]1CNC[C@@H]21 (mixture of isomers) [Example 149]    inactive
CN1C[C@@H]2CNC(=O)c3cc(-c4ccc5c(c4)C(=O)CC5)ccc3[C@H]2C1 [Example 306]    inactive
O=S(=O)(c1cccs1)N1Cc2cccnc2[C@@H]2CNC[C@H]2C1 (relative stereo) [Example 358]    inactive
O=C1NC[C@@H]2CNC[C@H]2c2ccc(-c3c(F)cccc3F)cc21 (relative stereo) [Example 276]    inactive
CN1C[C@H]2CNC(=O)c3cc(-c4ccc5nonc5c4)ccc3[C@@H]2C1 (relative stereo) [Example 195]    inactive
CN1C[C@H]2CNC(=O)c3cc(OCc4ccccc4)ccc3[C@@H]2C1 (relative stereo) [Example 216]    inactive
CN1C[C@H]2CNC(=O)c3cc(C4=CCOCC4)ccc3[C@@H]2C1 (relative stereo) [Example 242]    inactive
CS(=O)(=O)c1cccc(-c2ccc3c(c2)C(=O)NC[C@@H]2CNC[C@@H]32)c1 (relative stereo) [Example 227]    inactive

Record COc1cc(F)ccc1-c1ccc2c(c1)C(=O)NC[C@@H]1CN(C)C[C@@H]21 (relative stereo) [Example 299] . Reported Emax: inactive

Record O=C1NC[C@@H]2CNC[C@H]2c2ccc(OCc3ccccc3C(F)(F)F)cc21 (relative stereo) [Example 148] . Reported Emax: inactive

Record CN1C[C@H]2CNC(=O)c3cc(-c4cccc(C(C)(C)O)c4)ccc3[C@@H]2C1 (relative stereo) [Example 186] . Reported Emax: inactive

Record CN1C[C@@H]2CNC(=O)c3cc(Cl)ccc3[C@H]2C1 [Example 199] . Reported Emax: inactive

Record CC(C)=Cc1ccc2c(c1)C(=O)NC[C@@H]1CN(C)C[C@@H]21 (relative stereo) [Example 197] . Reported Emax: inactive

* * *

# test system: 5HT2B receptors (Homo sapiens, UniProt P41595)
# Construct: expressed in transfected cells; host or cells: CHO-K1 cells
# Sequence (P41595 whole entry): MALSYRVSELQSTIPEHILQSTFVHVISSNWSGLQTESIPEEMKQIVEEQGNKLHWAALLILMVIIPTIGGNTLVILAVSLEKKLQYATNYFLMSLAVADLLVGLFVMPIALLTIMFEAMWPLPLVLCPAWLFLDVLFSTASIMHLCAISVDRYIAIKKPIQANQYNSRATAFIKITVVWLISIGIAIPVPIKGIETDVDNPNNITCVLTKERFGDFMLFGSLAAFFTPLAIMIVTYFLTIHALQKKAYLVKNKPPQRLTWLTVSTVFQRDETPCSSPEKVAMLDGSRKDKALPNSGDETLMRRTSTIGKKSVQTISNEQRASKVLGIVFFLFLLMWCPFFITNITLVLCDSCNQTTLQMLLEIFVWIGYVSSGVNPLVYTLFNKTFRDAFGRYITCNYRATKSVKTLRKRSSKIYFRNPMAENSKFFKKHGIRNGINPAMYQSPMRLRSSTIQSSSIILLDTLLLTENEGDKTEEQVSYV
# assay text: Human 5-HT2B functional high throughput screening assay in CHO-K1 cells (calcium flux)
# Assay type: cell-based
# experimental conditions: 5-HT2B agonist activity; CHO-K1 cells; calcium flux
# Procedure: (iii) Human 5-HT2C and 5-HT2B Functional High Throughput Screening Assays in CHO-K1 Cells […] After incubation, the cell plates were transferred to FLIPR™ (MDS) and their fluorescence measurements were read at an excitation wavelength of 480 nm and an emission wavelength of 530 nm at 25° C. The baseline fluorescence was measured for the first 10 seconds and then 15 μL of 4× concentration of serotonin/test compound was added to the cells. […]
measure name: EC50 (nM)
Express it in nM; write the number only.

Record Cc1noc(C)c1-c1ccc2c(c1)C(=O)NC[C@@H]1CNC[C@@H]21 (single isomer, unassigned) [Example 292] . Reported EC50: 2000

* * *

Field: pEC50. Provide a value for each of the compounds that follow.
# test system: 5HT2B receptors (Homo sapiens, UniProt P41595)
# Construct: expressed in transfected cells; host or cells: CHO-K1 cells
# assay text: Human 5-HT2B functional high throughput screening assay in CHO-K1 cells (calcium flux)
# Format: cell-based
# experimental conditions: EC50, 5-HT2B agonist activity; CHO-K1 cells; calcium flux
Recall that pEC50 is obtained by taking minus log10 of the concentration measured in molar.

Record O=C1NC[C@@H]2CNC[C@H]2c2cccc(OC(F)(F)F)c21 (relative stereo) . Reported pEC50: 7.10

Record c1ccc2c(c1)OCC[C@H]1CNC[C@H]21 [Example 270] . Reported pEC50: 6.70

Record Cc1ccccc1S(=O)(=O)N1Cc2cccnc2[C@@H]2CNC[C@H]2C1 (relative stereo) . Reported pEC50: 6.52

Record c1ccc2c(c1)OCC[C@H]1CNC[C@H]21 (relative stereo) [Example 94] . Reported pEC50: 6.30

Record COc1cc(OC)c2c(c1)C(=O)NC[C@@H]1CNC[C@@H]21 (relative stereo) . Reported pEC50: 6.05

Record COc1cccc2c1[C@H]1CN(C)C[C@@H]1CCO2 (relative stereo) . Reported pEC50: 7.00

Record Fc1ccc2c(c1)[C@@H]1CNC[C@@H]1CCO2 (relative stereo) . Reported pEC50: 8.00

Record O=S(=O)(c1ccccc1Cl)N1Cc2cccnc2[C@@H]2CNC[C@H]2C1 (relative stereo) . Reported pEC50: 6.52

Record Clc1cc(Br)c2c(c1)[C@@H]1CNC[C@@H]1CCO2 (relative stereo) . Reported pEC50: 7.00

Record Brc1ccc2c(c1)[C@H]1CNC[C@@H]1CCO2 (relative stereo) . Reported pEC50: 7.70

Record O=S(=O)(c1ccccc1F)N1Cc2cccnc2[C@@H]2CNC[C@H]2C1 (relative stereo) . Reported pEC50: 6.52

Record CN1C[C@@H]2CN(C)C(=O)c3cc(F)ccc3[C@H]2C1 . Reported pEC50: 6.10

Record CN1C[C@H]2CNC(=O)c3c(F)cccc3[C@@H]2C1 (relative stereo) . Reported pEC50: 5.87

Record Brc1ccc2c(c1)[C@@H]1CNC[C@H]1CCN2 (relative stereo) . Reported pEC50: 8.22

Record O=C1NC[C@@H]2CNC[C@H]2c2cccc(F)c21 (single isomer, unassigned) [Example 62] . Reported pEC50: 6.15

Record CN1CC[C@@H]2CNC[C@H]2c2ccccc21 (relative stereo) . Reported pEC50: 6.70

Record O=S(=O)(c1cccc(Cl)c1)N1Cc2cccnc2[C@@H]2CNC[C@H]2C1 (relative stereo) . Reported pEC50: 6.30

Record COC(=O)c1cccc2c1NCC[C@@H]1CNC[C@@H]21 (relative stereo) . Reported pEC50: 6.70

Record Fc1ccc2c(c1)[C@H]1CNC[C@@H]1CCO2 (relative stereo) . Reported pEC50: 7.30

Record Fc1ccc(F)c2c1OCC[C@H]1CNC[C@H]21 (relative stereo) . Reported pEC50: 7.00

Record CN1C[C@@H]2CNC(=O)c3c(OC(F)(F)F)cccc3[C@H]2C1 . Reported pEC50: 5.70
